# Assay target: human TLR7 (Homo sapiens)
# Construct: host or cells: HEK293 reporter cells
# Sequence (Q9NYK1 27-1049): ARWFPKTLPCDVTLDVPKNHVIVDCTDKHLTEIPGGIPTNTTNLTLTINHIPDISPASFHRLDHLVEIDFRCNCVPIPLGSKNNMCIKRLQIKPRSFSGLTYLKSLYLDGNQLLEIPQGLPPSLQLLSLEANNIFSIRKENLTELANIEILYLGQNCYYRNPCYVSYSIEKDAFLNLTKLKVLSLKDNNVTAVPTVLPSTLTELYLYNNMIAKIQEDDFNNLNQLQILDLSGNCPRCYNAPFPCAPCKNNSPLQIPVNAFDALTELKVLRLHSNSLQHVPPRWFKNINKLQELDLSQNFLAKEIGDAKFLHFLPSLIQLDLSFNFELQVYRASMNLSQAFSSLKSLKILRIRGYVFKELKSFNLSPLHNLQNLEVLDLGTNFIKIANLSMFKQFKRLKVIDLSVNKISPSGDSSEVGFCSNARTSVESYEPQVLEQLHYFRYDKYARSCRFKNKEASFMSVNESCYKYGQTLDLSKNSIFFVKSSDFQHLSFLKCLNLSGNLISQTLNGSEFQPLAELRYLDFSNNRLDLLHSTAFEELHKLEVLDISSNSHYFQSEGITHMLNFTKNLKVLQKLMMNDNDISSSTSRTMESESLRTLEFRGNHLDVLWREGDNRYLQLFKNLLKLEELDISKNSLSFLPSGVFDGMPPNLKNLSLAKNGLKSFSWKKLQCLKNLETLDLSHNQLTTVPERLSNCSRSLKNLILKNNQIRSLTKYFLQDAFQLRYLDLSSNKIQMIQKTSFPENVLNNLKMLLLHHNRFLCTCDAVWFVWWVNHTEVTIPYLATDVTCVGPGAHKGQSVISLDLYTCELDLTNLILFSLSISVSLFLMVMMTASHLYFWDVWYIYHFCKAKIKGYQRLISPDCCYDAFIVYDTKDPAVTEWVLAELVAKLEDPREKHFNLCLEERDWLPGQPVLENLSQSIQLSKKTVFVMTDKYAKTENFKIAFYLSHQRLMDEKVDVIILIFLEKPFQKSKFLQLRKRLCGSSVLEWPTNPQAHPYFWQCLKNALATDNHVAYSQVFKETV
# Assay: HEK293 NFKB reporter assay, human TLR7
# Assay type: cell-based
# Assay context: Table 1b; HEK293 reporter cells expressing human TLR7; read-out: HEK293 hTLR7 EC50
List of EC50 values.
Just the number in µM, nothing appended.

Query string: Tell me the measured EC50 of `CCCN(CC#CCNC(=O)OC(C)(C)C)C(=O)C1=Cc2ccc(-c3cccc(S(=O)(=O)N4CC(CN(C)C)C4)c3)cc2N=C(N)C1` , please.
Result string: 4.25

API: the following record is the query input.
Query string: Which measured EC50 value corresponds to `CCCN(CCCNC(=O)c1ccc(OCC)cc1)C(=O)C1=Cc2ccc(-c3cccc(S(=O)(=O)N4CC(CO)C4)c3)cc2N=C(N)C1` ?
Result string: 1.43

----------
# Assay target: human TLR8 (Homo sapiens, UniProt Q9NR97)
# Construct: host or cells: HEK293 reporter cells
# Assay: HEK293 NFKB reporter assay, human TLR8
# Type: cell-based
Property name: EC50 (µM)
# unit: µM | format: bare number

Query string: Which value of EC50 has been reported for `CCCN(CCCNC(=O)OCC)C(=O)C1=Cc2ccc(-c3cccc(S(=O)(=O)N4CC(CO)C4)c3)cc2N=C(N)C1` in the records?
Result string: 0.134

----------
This section presents molecules with their documented pEC50 values.
# Assay target: human TLR8 (Homo sapiens, UniProt Q9NR97)
# Construct: host or cells: HEK293 reporter cells
# Sequence (Q9NR97 27-1041): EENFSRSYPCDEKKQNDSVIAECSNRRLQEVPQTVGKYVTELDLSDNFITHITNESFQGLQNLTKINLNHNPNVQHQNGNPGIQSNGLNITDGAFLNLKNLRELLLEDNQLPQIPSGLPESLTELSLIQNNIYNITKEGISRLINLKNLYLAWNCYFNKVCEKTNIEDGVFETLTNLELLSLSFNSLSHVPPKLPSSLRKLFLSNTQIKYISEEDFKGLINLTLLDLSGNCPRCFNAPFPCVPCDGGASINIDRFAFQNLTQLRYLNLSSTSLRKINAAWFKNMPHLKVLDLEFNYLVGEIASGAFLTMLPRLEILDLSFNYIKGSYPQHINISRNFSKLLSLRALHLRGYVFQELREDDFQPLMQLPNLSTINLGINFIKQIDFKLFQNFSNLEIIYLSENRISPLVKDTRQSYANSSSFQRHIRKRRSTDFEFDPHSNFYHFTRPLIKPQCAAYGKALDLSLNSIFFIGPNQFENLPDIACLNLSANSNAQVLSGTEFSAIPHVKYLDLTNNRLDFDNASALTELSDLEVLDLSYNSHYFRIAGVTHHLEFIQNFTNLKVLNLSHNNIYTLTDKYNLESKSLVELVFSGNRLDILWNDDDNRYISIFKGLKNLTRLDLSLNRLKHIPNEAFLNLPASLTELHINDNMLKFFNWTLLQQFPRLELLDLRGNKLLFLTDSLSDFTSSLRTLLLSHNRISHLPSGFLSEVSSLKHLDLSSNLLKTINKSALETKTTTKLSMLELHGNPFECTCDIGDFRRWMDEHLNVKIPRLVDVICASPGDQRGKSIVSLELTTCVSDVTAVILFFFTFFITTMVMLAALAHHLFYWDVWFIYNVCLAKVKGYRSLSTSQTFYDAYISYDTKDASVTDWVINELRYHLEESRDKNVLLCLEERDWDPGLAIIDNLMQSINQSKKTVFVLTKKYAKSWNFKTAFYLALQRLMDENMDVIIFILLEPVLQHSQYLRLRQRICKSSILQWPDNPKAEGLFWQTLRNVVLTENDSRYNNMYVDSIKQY
# Assay: HEK293 NFKB reporter assay, human TLR8
# Assay type: cell-based
# Assay context: Table 1b; HEK293 reporter cells expressing human TLR8; read-out: HEK293 hTLR8 EC50
pEC50: −log10 of the molar value.

Recorded results for 2 molecules are shown here.
Query string: pEC50 lookup needed for `CCCN(C/C=C/CN)C(=O)C1=Cc2ccc(-c3cccc(S(=O)(=O)N4CC(CO)C4)c3)cc2N=C(N)C1` , thanks.
Result string: < 5.05

Query string: Given the entry `CCCN(CCCCCN)C(=O)C1=Cc2ccc(-c3cccc(S(=O)(=O)N4CC(CO)C4)c3)cc2N=C(N)C1` , report its measured pEC50.
Result string: < 5.05

Others:
Query string: What pEC50 value was documented for this molecule, `CCCN(CCCOCCOCCN)C(=O)C1=Cc2ccc(-c3cccc(S(=O)(=O)N4CC(CO)C4)c3)cc2N=C(N)C1` ?
Result string: < 5.05

src = patent US20200390899A1
